Test: in vivo
Conditions: DBA/2 J, mouse, plasma, po, 15 mg/kg
value type: Cmax
Give the value; after it, write the unit.

C[C@@H]1C[C@H]2[C@@H]3CCC4=CC(=O)C=C[C@]4(C)C3=CC[C@]2(C)[C@@]1(O)C(=O)CO [Vamorolone] yielded Cmax of 1980 ng/mL

###

Assay: in vivo
Details: C57BL/10, mouse, brain/plasma, oral, 30 mg/kg
value type: Kp
Please state the value as a number alone, without comment.

get_value(item= C[C@@H]1C[C@H]2[C@@H]3CCC4=CC(=O)C=C[C@]4(C)C3=CC[C@]2(C)[C@@]1(O)C(=O)CO , readout=Kp) returns 0.46

###

System: P-gp (MDR1)
Assay: MDR1-MDCK permeability / P-gp efflux assay
Conditions: MDCK-MDR1, pH 7.4
value type: Papp B→A at 60 min

Entry C[C@H]1O[C@@H](O[C@H]2[C@@H](O)C[C@H](O[C@H]3[C@@H](O)C[C@H](O[C@H]4CC[C@@]5(C)[C@H](CC[C@@H]6[C@@H]5C[C@@H](O)[C@]5(C)[C@@H](C7=CC(=O)OC7)CC[C@]65O)C4)O[C@@H]3C)O[C@@H]2C)C[C@H](O)[C@@H]1O , Papp B→A at 60 min reported as 19.6 to 20.7 ×10⁻⁶ cm/s

###

Experiment: MDCK control cell permeability (not transfected with human P-gp)
Settings: dog, pH 7.4
value type: Papp A→B at 60 min, 1 μM (×10⁻⁶ cm/s)
Provide only the numeric value, understood in ×10⁻⁶ cm/s.

Briefly, Papp A→B at 60 min, 1 μM measured for C[C@]12C=CC(=O)C=C1CC[C@@H]1[C@@H]2C(=O)C[C@@]2(C)[C@H]1CC[C@]2(O)C(=O)CO [Prednisone] : 2.83

We now examine a further compound.
Lookup result for CC(=O)OCC(=O)[C@@]12N=C(C)O[C@@H]1C[C@H]1[C@@H]3CCC4=CC(=O)C=C[C@]4(C)[C@H]3[C@@H](O)C[C@@]12C [Deflazacort] ; measured Papp A→B at 60 min, 1 μM: 12.3

###

This listing pairs compounds with measured Papp B→A at 60 min, 1 μM.
Tested on: human P-gp (MDR1)
Assay: MDR1-MDCK permeability / P-gp efflux assay
Conditions: dog, MDCK-MDR1, pH 7.4
Experimental: To measure transport by P-gp, Madin-Darby canine kidney (MDCK) cells that had been transfected with the human P-gp (MDR1) gene were plated in a Transwell plate and cultured until polarized. MDCK cells that are not transfected with human P-gp were used as a control. Compounds were added to either the apical or the basolateral side of the cells, and transport across the membrane was measured. […]
Return type: number; implicit unit ×10⁻⁶ cm/s.

// recorded Papp B→A at 60 min, 1 μM for C[C@]12C=CC(=O)C=C1CC[C@@H]1[C@@H]2C(=O)C[C@@]2(C)[C@H]1CC[C@]2(O)C(=O)CO : 43.8

Would you kindly look at the next entry?
Quick note, Papp B→A at 60 min, 1 μM for C[C@@H]1C[C@H]2[C@@H]3CCC4=CC(=O)C=C[C@]4(C)C3=CC[C@]2(C)[C@@]1(O)C(=O)CO landed at 54.7

###

Assay: MDCK control cell permeability (not transfected with human P-gp)
Settings: dog, pH 7.4
Reported Papp B→A at 60 min, 10 μM values are given for each entry in this list.

The molecule CC(=O)OCC(=O)[C@@]12N=C(C)O[C@@H]1C[C@H]1[C@@H]3CCC4=CC(=O)C=C[C@]4(C)[C@H]3[C@@H](O)C[C@@]12C [Deflazacort] showed Papp B→A at 60 min, 10 μM equal to 6.7 ×10⁻⁶ cm/s

Field Papp B→A at 60 min, 10 μM (entry C[C@]12C=CC(=O)C=C1CC[C@@H]1[C@@H]2C(=O)C[C@@]2(C)[C@H]1CC[C@]2(O)C(=O)CO [Prednisone] ) reads 2.86 ×10⁻⁶ cm/s

Continue with the next molecule.
Quick note, Papp B→A at 60 min, 10 μM for C[C@@H]1C[C@H]2[C@@H]3CCC4=CC(=O)C=C[C@]4(C)C3=CC[C@]2(C)[C@@]1(O)C(=O)CO [Vamorolone] landed at 22.7 ×10⁻⁶ cm/s
